Tested on: HCT-116
assay explanation: Antiproliferative activity against human HCT-116 cells assessed as inhibition of cell growth measured after 96 hrs by MTT assay
Type: functional, cell-based
measurement setup: HCT-116, 96 h
measure name: IC50 (µM)
Lab book: enter the figure in µM, no units written.

Problem: # input compound: CN1CCN(c2cc3c(cc2Nc2nnc(-c4ccc(C(F)(F)F)cc4)s2)nc(-c2ccc(F)cc2)n3C2CC2)CC1 ; wanted: its IC50
Result: 2.19

* * *

assay explanation: Cmax in ICR mouse at 50 mg/kg, po measured upto 96 hrs by HPLC-MS/MS analysis
Type: ADME, organism-based
Set-up: time < 96 hrs, dose 50 mg/kg, route po
measurement setup: in vivo
measure name: Cmax (ng/mL)
Reply numerically in ng/mL, unit not repeated.

Problem: Need Cmax of CN1CCN(c2cc3c(cc2Nc2nnc(-c4ccc(C(F)(F)F)cc4)s2)nc(-c2ccc(F)cc2)n3C2CC2)CC1 , thanks.
Result: 910

* * *

System: PANC-1
assay explanation: Antiproliferative activity against human PANC-1 cells assessed as inhibition of cell growth measured after 96 hrs by MTT assay
Format: functional, cell-based
measurement setup: PANC-1, 96 h
measure name: IC50 (nM)
Report as a plain number; the unit nM is understood.

Problem: # get_value(readout='IC50', item= CN1CCN(c2cc3c(cc2Nc2nnc(-c4ccc(C(F)(F)F)cc4)s2)nc(-c2ccc(F)cc2)n3C2CC2)CC1 )
Result: 2430

* * *

assay explanation: AUC (0 to t) in ICR mouse at 5 mg/kg, iv measured upto 96 hrs by HPLC-MS/MS analysis
Assay type: ADME, organism-based
Set-up: time < 96 hrs, dose 5 mg/kg, route iv
measurement setup: in vivo
measure name: AUC(0-t) at 96 h (ng·h/mL)
Report as a plain number; the unit ng·h/mL is understood.

Problem: // lookup AUC(0-t) at 96 h for CN1CCN(c2cc3c(cc2Nc2nnc(-c4ccc(C(F)(F)F)cc4)s2)nc(-c2ccc(F)cc2)n3C2CC2)CC1
Result: 3430

* * *

assay explanation: Inhibition of IL-6/JAK/STAT3 signalling pathway in HEK-Blue IL-6 cells incubated for 16 hrs by QUANTI-blue assay
Format: cell-based
measurement setup: Homo sapiens, HEK-Blue IL-6, 16 h
Provide the reported IC50 of each item.
// units = µM; emit number, no label

Problem: Looking for the measured IC50 of CCCCCn1c(-c2ccc(F)cc2)nc2cc(Nc3nnc(-c4ccccc4)s3)c(N3CCN(C)CC3)cc21 , can you help?
Result: 3.96

Problem: Consider the compound shown here: CN1CCN(c2cc3c(cc2Nc2nnc(-c4cccc(C#N)c4)s2)nc(-c2ccc(F)cc2)n3C2CC2)CC1 What is its recorded IC50?
Result: 4.01

Problem: // returns reported IC50 for input CN1CCN(c2cc3c(cc2Nc2nnc(-c4cccc(C(F)(F)F)c4)s2)nc(-c2ccc(F)cc2)n3C2CC2)CC1
Result: 2.23

Problem: Need IC50, item CN1CCN(c2cc3c(cc2Nc2nnc(-c4ccccc4)s2)nc(-c2ccccc2F)n3C2CC2)CC1
Result: 7.56

Problem: // lookup IC50 for O=[N+]([O-])c1ccc2c(c1)S(=O)(=O)C=C2
Result: 2.21

Problem: IC50 lookup needed for CN1CCN(c2cc3c(cc2Nc2nnc(-c4ccc(C(F)(F)F)cc4)s2)nc(-c2ccc(F)cc2)n3C2CC2)CC1 , thanks.
Result: 0.65

Problem: Field request: IC50 | item: CC(C)Cn1c(-c2ccc(F)cc2)nc2cc(Nc3nnc(-c4ccccc4)s3)c(N3CCN(C)CC3)cc21
Result: 3.92

Problem: Given the compound Fc1cc2c(cc1Nc1nnc(-c3cccc(C(F)(F)F)c3)s1)nc(-c1cccc(C(F)(F)F)c1)n2C1CC1 , what is its reported IC50?
Result: 1.53

Problem: IC50 for CCCCn1c(-c2ccc(F)cc2)nc2cc(Nc3nnc(-c4ccccc4)s3)c(N3CCN(C)CC3)cc21 ?
Result: 3.51

Problem: Fill in: IC50 of CCCn1c(-c2ccc(F)cc2)nc2cc(Nc3nnc(-c4ccccc4)s3)c(N3CCN(C)CC3)cc21 is ___
Result: 1.32

Problem: Which value of IC50 has been reported for CC(C)N1CCN(c2cc3c(cc2Nc2nnc(-c4ccccc4)s2)nc(-c2ccc(F)cc2)n3C2CC2)CC1 in the records?
Result: 2.42

Problem: # IC50 lookup, item CN1CCN(c2cc3c(cc2Nc2nnc(-c4cccc(F)c4)s2)nc(-c2ccc(F)cc2)n3C2CC2)CC1
Result: 3.52

Problem: Data request, read-out IC50, for CN1CCN(c2cc3c(cc2Nc2nnc(-c4ccccc4)s2)nc(-c2ccc(F)cc2)n3C2CCC2)CC1
Result: 6.27
